# studySystem: CDK9/CycT1 (Homo sapiens (Human))
# Sequence (P50750 whole entry): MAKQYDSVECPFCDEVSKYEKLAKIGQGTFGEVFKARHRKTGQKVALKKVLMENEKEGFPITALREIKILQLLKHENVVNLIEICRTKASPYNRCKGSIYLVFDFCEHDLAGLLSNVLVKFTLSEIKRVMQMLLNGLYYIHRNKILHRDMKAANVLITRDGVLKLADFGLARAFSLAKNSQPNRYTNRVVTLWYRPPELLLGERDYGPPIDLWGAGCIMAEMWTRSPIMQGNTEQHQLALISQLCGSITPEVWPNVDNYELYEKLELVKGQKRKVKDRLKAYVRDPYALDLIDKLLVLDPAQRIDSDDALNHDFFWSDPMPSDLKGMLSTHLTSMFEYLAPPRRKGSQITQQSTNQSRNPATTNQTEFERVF
# Sequence (O60563 whole entry partner): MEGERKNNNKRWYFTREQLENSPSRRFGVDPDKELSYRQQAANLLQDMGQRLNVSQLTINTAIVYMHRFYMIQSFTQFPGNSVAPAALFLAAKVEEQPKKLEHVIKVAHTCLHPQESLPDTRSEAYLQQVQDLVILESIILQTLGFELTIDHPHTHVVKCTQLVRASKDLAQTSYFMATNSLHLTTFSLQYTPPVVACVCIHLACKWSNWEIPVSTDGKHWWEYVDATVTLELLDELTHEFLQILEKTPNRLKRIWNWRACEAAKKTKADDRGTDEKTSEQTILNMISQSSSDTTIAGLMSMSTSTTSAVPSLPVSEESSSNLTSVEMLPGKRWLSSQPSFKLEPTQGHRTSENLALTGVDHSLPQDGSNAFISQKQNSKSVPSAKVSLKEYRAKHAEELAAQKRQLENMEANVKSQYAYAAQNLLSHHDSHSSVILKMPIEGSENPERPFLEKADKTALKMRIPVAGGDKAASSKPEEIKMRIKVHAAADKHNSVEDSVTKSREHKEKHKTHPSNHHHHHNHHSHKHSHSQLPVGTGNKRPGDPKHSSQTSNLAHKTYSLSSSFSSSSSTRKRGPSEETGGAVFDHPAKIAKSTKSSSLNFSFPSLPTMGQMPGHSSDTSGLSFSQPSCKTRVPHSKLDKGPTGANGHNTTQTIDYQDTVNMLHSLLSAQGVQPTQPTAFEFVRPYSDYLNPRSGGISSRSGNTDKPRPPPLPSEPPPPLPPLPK
# assayDetails: CDK9/CycT1 kinase assay (TR-FRET)
# Assay type: biochemical
# setupConditions: Method 1
resultType: IC50 (nM)
// note: answer is a bare numeric in nM

Some compounds with recorded IC50:
| compound | IC50, nM |
| --- | --- |
| CS(=N)(=O)Cc1cccc(Nc2ncnc(-c3ccc(F)cc3OCc3ccncc3)n2)c1 (racemic) [Example 68] | 14 |
| CS(=N)(=O)Cc1cccc(Nc2ncnc(-c3cccc4c3OCCO4)n2)c1 (single isomer, unassigned) [Example 40] | 25 |

Q: Which measured IC50 belongs to CS(=N)(=O)Cc1cccc(Nc2ncnc(-c3ccc(F)cc3OCc3cccc(C#N)c3)n2)c1 (racemic) [Example 98] , tested on CDK9/CycT1 (Homo sapiens (Human))?
A: 3

Q: Which measured IC50 belongs to COc1cc(F)ccc1-c1ncnc(Nc2cc(C)cc(CS(C)(=O)=NC#N)c2)n1 (racemic) [Example 111] , tested on CDK9/CycT1 (Homo sapiens (Human))?
A: 3

----------
Measured pIC50 by item
# studySystem: CDK2/CycE (Homo sapiens (Human), UniProt P24941)
# assayDetails: CDK2/CycE kinase assay (TR-FRET)
# Type: biochemical
# setupConditions: Method 2
pIC50 field: float, defined as -log10 of concentration (mol/L).

| compound | studySystem | pIC50 |
| --- | --- | --- |
| CS(=N)(=O)Cc1cccc(Nc2ncnc(-c3cccc4c3OCCO4)n2)c1 (single isomer, unassigned) [Example 40] | CDK2/CycE (Homo sapiens (Human), UniProt P24941) | 5.74 |
| CS(=N)(=O)Cc1cccc(Nc2ncnc(-c3cccc4c3OCC4)n2)c1 (single isomer, unassigned) [Example 35] | CDK2/CycE (Homo sapiens (Human), UniProt P24941) | 5.51 |
| CS(=N)(=O)Cc1cccc(Nc2ncnc(-c3ccc(F)cc3OCc3ccnc(F)c3)n2)c1 (single isomer, unassigned) [Example 83] | CDK2/CycE (Homo sapiens (Human), UniProt P24941) | 6.57 |
| CCOc1cc(F)ccc1-c1ncnc(Nc2cccc(CS(C)(=N)=O)c2)n1 (racemic) | CDK2/CycE (Homo sapiens (Human), UniProt P24941) | 5.89 |
| CS(=N)(=O)Cc1cccc(Nc2ncnc(-c3ccc(F)cc3OCc3ccc(F)cc3)n2)c1 (single isomer, unassigned) [Example 56.a] | CDK2/CycE (Homo sapiens (Human), UniProt P24941) | 6.25 |

Q: Fill in: pIC50 of CS(=N)(=O)Cc1cccc(Nc2ncnc(-c3ccc(F)cc3OCc3ccnc(F)c3)n2)c1 (single isomer, unassigned) [Example 84] is ___
A: 6.66

Q: Fill in: pIC50 of CS(=N)(=O)Cc1cccc(Nc2ncnc(-c3ccc(F)cc3OCc3cc(F)c(F)c(F)c3)n2)c1 (racemic) is ___
A: 7.27

Q: Fill in: pIC50 of CS(=N)(=O)Cc1cccc(Nc2ncnc(-c3ccc(F)cc3OCCC3CC3)n2)c1 (racemic) is ___
A: 5.49

Q: Fill in: pIC50 of CCS(=N)(=O)Cc1cccc(Nc2ncnc(-c3ccc(F)cc3OC)n2)c1 (racemic) is ___
A: 6.00

Q: Fill in: pIC50 of CS(=N)(=O)Cc1cccc(Nc2ncnc(-c3ccc(F)cc3OCc3ccncc3)n2)c1 (racemic) is ___
A: 5.82

Q: Fill in: pIC50 of COc1cc(F)ccc1-c1ncnc(Nc2ccc(Cl)c(CS(C)(=N)=O)c2)n1 (racemic) [Example 59] is ___
A: 5.85

Q: Fill in: pIC50 of CS(=N)(=O)Cc1cccc(Nc2ncnc(-c3ccc(F)cc3OCc3ccc(F)c(Cl)c3)n2)c1 (racemic) is ___
A: 6.70

Q: Fill in: pIC50 of CS(=N)(=O)Cc1cccc(Nc2ncnc(-c3cccc4c3OCCC4)n2)c1 (single isomer, unassigned) [Example 32] is ___
A: 5.80
